Test Method Notes: chemical genetic growth profiling, strain panel (AID 1159580);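 also: tested at 20 µM; growth read once vehicle control cultures reached saturation at 30 °C; 1 = growth at the plate median or of vehicle wells; lower values mean less growth of the strain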
Experimental Context: S. cerevisiae deletion strains, growth OD, locus YLR262C, strain YPT6 (second series), stronger effect = lower value
In all, about 5,500 compounds went through this assay and about 2,000 (36%) were called active. Inconclusive results (about 18%) are left out. Some of the results follow.
Please note: normalized growth exactly at 1 is 0. Only values below 1 get 1.

- CC(=O)Oc1c2c(c3c(c1CC=C(C)C)O[C@]14C(=C[C@@H]5CC1C(C)(C)OC4(C/C=C(\C)C(=O)O)C5=O)C3=O)OC(C)(CCC=C(C)C)C=C2 (some centres undefined): 1
- C=C[C@@]1(C)CC(=O)[C@@]2(O)[C@](C)(O1)[C@@H](OC(C)=O)[C@@H](O)C1C(C)(C)CC[C@H](O)[C@@]12C (some centres undefined): 1
- CC1[C@H](C)OC(=O)CC(O)CC(O)CC(O)CCC(O)C(O)C[C@]2(O)CC(O)C(C(=O)O)C(CC(OC3O[C@H](C)[C@@H](O)[C@H](N)[C@@H]3O)/C=C/C=C/C=C/C=C/CC/C=C/C=C/[C@H](C)[C@H]1O)O2 (some centres undefined): 1
- CN(C)CCC(c1ccccc1)c1ccccn1 (centres undefined): 0
- O=c1[nH]c(=O)n(C2C[C@H](O)[C@@H](CO)O2)cc1C(F)(F)F (some centres undefined): 1
- COc1ccc2c(c1)OCC(Cc1ccc(OC)c(OC)c1)C2=O (centres undefined): 1
- COc1ccc(CCC(=O)c2c(O)cc(O[C@@H]3O[C@H](CO)C(O)[C@H](O)C3O[C@@H]3O[C@@H](C)[C@H](O)[C@@H](O)[C@H]3O)cc2O)cc1O (some centres undefined): 0
- Cc1cc(/C=C/c2ccc3cc(N(C)C)ccc3[n+]2C)c(C)n1-c1ccccc1: 1
- Cc1oncc1C(=O)Nc1ccc(C(F)(F)F)cc1: 0
- CCCn1c(=O)c2[nH]c(C3CCCC3)nc2n(CCC)c1=O: 1
- COC(=O)[C@H](c1ccccc1Cl)N1CCc2sccc2C1: 1
- COP(=S)(OC)Oc1ccc([N+](=O)[O-])cc1: 1
- CC(=O)OCC(=O)[C@@]1(O)CCC2C3CCC4=CC(=O)C=CC4(C)C3[C@@H](O)C[C@@]21C (some centres undefined): 1
- CC(=O)Oc1c2c(c(CC=C(C)C)c3c1C(=O)C1=C[C@@H]4CC5C(C)(C)OC(C/C=C(\C)C(=O)O)(C4=O)[C@@]15O3)OC(C)(CCC=C(C)C)C=C2 (some centres undefined): 1
- O=C(O)[C@@H](S)[C@@H](S)C(=O)O: 1
- NCCCNCCSP(=O)(O)O: 1
- COc1ccc2c(c1)OCC(Cc1ccc(OC)c(OC(C)=O)c1)C2=O (centres undefined): 1
- Clc1ccccc1CN1CCc2sccc2C1: 1
- O=C(O)CCC1NCC2CC1CN1CCCCC21 (centres undefined): 1
- N[C@@H](C(=O)O)[C@@H](O)[C@H](O)[C@H](O)CO: 0
- COc1ccc2c(c1)OCC(Cc1ccc(O)c(OC)c1)C2=O (centres undefined): 1
- NCC[C@@H](O)C(=O)N[C@@H]1C[C@H](N)[C@@H](O[C@H]2O[C@H](CN)[C@@H](O)[C@H](O)[C@H]2O)[C@H](O)[C@H]1O[C@H]1O[C@H](CO)[C@@H](O)[C@H](N)C1O (some centres undefined): 0
- CC1OC(O[C@H]2/C=C/C=C/C=C/C=C/C=C/C=C/C=C/[C@H](C)[C@@H](O)[C@@H](C)[C@H](C)OC(=O)CC(O)CC(O)CCC(O)C(O)CC(O)C[C@]3(O)C[C@H](O)C(C(=O)O)C(C2)O3)C(O)[C@H](N)C1O (some centres undefined): 1

All values here come from PubChem BioAssay AID1159580.
